# key: entry, value: pKd
Target: Hfq wt (Salmonella, UniProt P0A1R0 1-102)
Assay: EMSA; specific site (Ks); 24 mM Tris-HCl pH 7.5, 50 mM NaCl, 50 mM NH4Cl, 50 mM KCl, 0.5 mM EDTA, 2 mM MgCl2, 5% glycerol, room temperature, 1 h; 6% native gel in 1x THEM2
Details: protein: recombinant; tags: C-terminal His6; chain copies: 6; label: 5'-32P
pKd: −log10 of the molar value.

binder	pKd
ompD-187 ARN-5 (structured_RNA) RNA: GCCAUUGACAAACGCCUCGUUUAACAAUGGUUGAGGAAACACGCUAAGAAAAUUAUAAGGAUUAUUAAAAUGAAACUUAAGUUAGUGGCAGUGGCAGUGACUUCCCUGUUGGCAGCAGGCGUUGUAAAUGCAGCCGAGGUAUAUAACGAGGACGGCAAUAAACUGGAUCUGUACGGUAAAGUUCACG	9.05
ompD-187 ARN-5+6 (structured_RNA) RNA: GCCAUUGACAAACGCCUCGUUUAACAAUGGUUGAGGAAACACGCUAAGAAAAUUAUAAGGAUUAUUAAAAUGAAACUUAAGUUAGUGGCAGUGGCAGUGACUUCCCUGUUGGCAGCAGGCGUUGUAAAUGCAGCCGAGGUAUAUAACGAGGACGGCCAUUCACUGGAUCUGUACGGUAAAGUUCACG	9.09
ompD-187 ARN-6 (structured_RNA) RNA: GCCAUUGACAAACGCCUCGUUUAACAAUGGUUGAGGAAACACGCUAAGAAAAUUAUAAGGAUUAUUAAAAUGAAACUUAAGUUAGUGGCAGUGGCAGUGACUUCCCUGUUGGCAGCAGGCGUUGUAAAUGCAGCCGAGGUAUAUAACAAAGACGGCCAUUCACUGGAUCUGUACGGUAAAGUUCACG	9.09
